The compounds listed here are annotated with their pKa.
# assay-notes: pKA values by half-equivalence method
# Format: physicochemical
# condition-parameters: 20° C.; amine in water, half neutralized with hydrochloric acid; read-out: pKA at 20° C.

- compound: "CN(C)C1CC(C)(C)NC(C)(C)C1 [DATP]"
  data-value: 10.7

Now consider a different compound.
Query :: Identify the reported pKa for the following entry. CC1(C)CC(O)CC(C)(C)N1 [TAAol, 4-hydroxy-2,2,6,6-tetramethylpiperidine]
Result :: 10.2

Value source: patent US10493398B2
